Quick reference for %Inh among some compounds
- Test system: WNK4
- measurement_parameters: concentration: 1 μM, replicates: in singlicate; n = 1
Return type: number; implicit unit %.

// below: answered compounds
{"compound": "Cl.Cl.NCC(C(=O)Nc1cc(Br)c(-c2ccnc3[nH]ccc23)s1)c1ccccc1 (centres unmarked)", "measurement_unit": "%", "numeric_result": 11}
{"compound": "Nc1ncnc2c1nc(-c1ccccc1)n2-c1ccccc1", "measurement_unit": "%", "numeric_result": 28}
{"compound": "Cc1ccc(F)c(C(=O)Nc2cccc(-c3nn4ccccc4c3-c3ccnc(Nc4cccc(F)c4)n3)c2)c1F", "measurement_unit": "%", "numeric_result": 0}

### Prompt Item: C[C@@H]1CC[C@@H](C(=O)Nc2ccccc2)CN1c1cc(-c2ccc3c(N)n[nH]c3c2)nc(N)n1 Test system: WNK4 Read-out: %Inh Value: ?;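 further: KINOMEscan kinase panel screen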
### Response 0
